molecular target: BRAF G466V (Homo sapiens, UniProt P15056, G466V); construct: expressed in transfected cells; assay: Cellular assay of target protein degradation, T-Rex 293 cells stably transfected with HA-BRAF G466V (HA immunofluorescence, high content imaging); assay type: cell-based; settings: half maximal degradation, T-Rex 293 HA-BRAF G466V; read-out: BRaf G466V DC50
Sequence (P15056 whole entry G466V): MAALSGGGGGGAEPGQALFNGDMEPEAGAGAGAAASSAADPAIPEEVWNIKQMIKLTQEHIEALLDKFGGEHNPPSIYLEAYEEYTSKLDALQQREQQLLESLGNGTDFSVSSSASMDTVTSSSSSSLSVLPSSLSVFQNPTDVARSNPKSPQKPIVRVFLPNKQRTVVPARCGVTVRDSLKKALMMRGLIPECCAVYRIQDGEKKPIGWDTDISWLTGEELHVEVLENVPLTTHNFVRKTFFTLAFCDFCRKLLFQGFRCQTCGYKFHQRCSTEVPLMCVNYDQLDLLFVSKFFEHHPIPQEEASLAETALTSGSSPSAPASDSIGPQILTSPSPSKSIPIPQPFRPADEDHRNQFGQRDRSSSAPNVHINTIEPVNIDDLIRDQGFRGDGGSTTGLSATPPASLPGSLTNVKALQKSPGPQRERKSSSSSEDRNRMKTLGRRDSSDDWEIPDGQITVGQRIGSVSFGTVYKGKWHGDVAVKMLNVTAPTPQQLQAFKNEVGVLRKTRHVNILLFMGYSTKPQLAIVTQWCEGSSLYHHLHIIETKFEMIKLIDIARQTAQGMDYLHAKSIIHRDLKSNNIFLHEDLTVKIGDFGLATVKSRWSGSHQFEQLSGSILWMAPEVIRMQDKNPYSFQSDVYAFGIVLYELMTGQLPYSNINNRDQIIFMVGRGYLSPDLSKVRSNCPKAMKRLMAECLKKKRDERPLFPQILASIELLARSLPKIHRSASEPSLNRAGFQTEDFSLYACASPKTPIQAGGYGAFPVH
measuredProperty: DC50

compound O=C1CCC(N2Cc3cc(OCCCOC4CCN(c5ccc(-c6cnc7[nH]cc(C(=O)c8c(F)ccc(NS(=O)(=O)N9CC[C@@H](F)C9)c8F)c7c6)cc5)CC4)ccc3C2=O)C(=O)N1 (some centres unmarked) , DC50 observed: 0.001 to 0.01 µM

compound O=C1CC[C@H](N2Cc3cc(C[C@@H](O)CN4CCC(c5ccc(-c6cnc7[nH]cc(C(=O)c8c(F)ccc(NS(=O)(=O)N9CC[C@@H](F)C9)c8F)c7c6)cc5)CC4)ccc3C2=O)C(=O)N1 , DC50 observed: 0.001 to 0.01 µM

compound O=C1CCC(N2Cc3cc(OC4CC5(C4)CN(c4ccc(-c6cnc7[nH]cc(C(=O)c8c(F)ccc(NS(=O)(=O)N9CC[C@@H](F)C9)c8F)c7c6)cc4)C5)ccc3C2=O)C(=O)N1 (some centres unmarked) , DC50 observed: 0.01 to 0.03 µM

compound O=C1CC[C@@H](N2Cc3cc(N4CC(CN5C[C@@H]6CN(c7ccc(-c8cnc9[nH]cc(C(=O)c%10c(F)ccc(NS(=O)(=O)N%11CC[C@@H](F)C%11)c%10F)c9c8)cc7)C[C@@H]6C5)C4)ccc3C2=O)C(=O)N1 , DC50 observed: 0.001 to 0.01 µM

compound O=C1CCC(N2Cc3cc(N4CCC(CC5CN(c6ccc(-c7cnc8[nH]cc(C(=O)c9c(F)ccc(NS(=O)(=O)N%10CC[C@@H](F)C%10)c9F)c8c7)cc6)C5)CC4)ccc3C2=O)C(=O)N1 (some centres unmarked) , DC50 observed: 0.001 to 0.01 µM

---
compound COc1cc(C2CCN(CC3CCN(c4ccc(-c5cnc6[nH]cc(C(=O)c7c(F)ccc(NS(=O)(=O)N8CC[C@@H](F)C8)c7F)c6c5)cc4)CC3)CC2)ccc1C(=O)NC1CCC(=O)NC1=O (some centres unmarked) , DC50 observed: 0.001 to 0.01 µM

compound O=C1CCC(N2Cc3cc(N4CCC(N5CCN(CC6CN(c7ccc(-c8cnc9[nH]cc(C(=O)c%10c(F)ccc(NS(=O)(=O)N%11CC[C@@H](F)C%11)c%10F)c9c8)cc7)C6)CC5)CC4)ccc3C2=O)C(=O)N1 (some centres unmarked) , DC50 observed: 0.001 to 0.01 µM

compound O=C1CC[C@H](N2Cc3cc(C[C@@H](O)CN4CCN(c5ccc(-c6cnc7[nH]cc(C(=O)c8c(F)ccc(NS(=O)(=O)N9CC[C@@H](F)C9)c8F)c7c6)cc5)CC4)ccc3C2=O)C(=O)N1 , DC50 observed: > 0.03 µM

###

biological target: BRAF V600E (Homo sapiens, UniProt P15056, V600E); construct: expressed in transfected cells; assay: Cellular assay of target protein degradation, T-Rex 293 cells stably transfected with HA-BRAF_V600E (HA immunofluorescence, high content imaging); type: cell-based; settings: half maximal degradation, T-Rex 293 HA-BRAF V600E; read-out: BRaf V600E DC50
Sequence (P15056 whole entry V600E): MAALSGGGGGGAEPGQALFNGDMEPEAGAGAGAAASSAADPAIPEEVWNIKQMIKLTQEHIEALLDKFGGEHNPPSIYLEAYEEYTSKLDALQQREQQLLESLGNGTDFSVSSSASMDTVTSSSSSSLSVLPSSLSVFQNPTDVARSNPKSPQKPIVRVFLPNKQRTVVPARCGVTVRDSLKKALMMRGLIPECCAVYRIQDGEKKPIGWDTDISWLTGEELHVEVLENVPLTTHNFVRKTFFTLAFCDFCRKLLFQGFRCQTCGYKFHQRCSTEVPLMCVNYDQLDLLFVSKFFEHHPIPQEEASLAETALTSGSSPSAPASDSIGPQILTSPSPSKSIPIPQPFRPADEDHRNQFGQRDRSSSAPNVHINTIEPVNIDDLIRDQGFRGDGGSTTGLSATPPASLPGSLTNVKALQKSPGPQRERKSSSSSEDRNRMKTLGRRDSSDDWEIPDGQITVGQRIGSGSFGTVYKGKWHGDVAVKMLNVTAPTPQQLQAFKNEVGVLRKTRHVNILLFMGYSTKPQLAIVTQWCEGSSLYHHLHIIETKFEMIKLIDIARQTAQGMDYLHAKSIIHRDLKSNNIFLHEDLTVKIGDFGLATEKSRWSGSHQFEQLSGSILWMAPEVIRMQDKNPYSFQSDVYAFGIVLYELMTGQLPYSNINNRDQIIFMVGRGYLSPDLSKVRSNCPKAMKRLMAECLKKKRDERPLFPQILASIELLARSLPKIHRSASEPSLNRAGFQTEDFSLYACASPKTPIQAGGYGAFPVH
measuredProperty: DC50

See these solved cases before continuing.
compound O=C1CCC(N2C(=O)c3ccc(C4CCN(CC5CCN(c6ccc(-c7cnc8[nH]cc(C(=O)c9c(F)ccc(NS(=O)(=O)N%10CC[C@@H](F)C%10)c9F)c8c7)cc6)CC5)CC4)cc3C2=O)C(=O)N1 (stereo partly drawn) , DC50 observed: 50 to 500 nM

compound COc1cc(N2CCC(CN3CC4(C3)CN(c3ccc(-c5cnc6[nH]cc(C(=O)c7c(F)ccc(NS(=O)(=O)N8CCC(F)(F)C8)c7F)c6c5)cc3)C4)CC2)cc2c1C(=O)N(C1CCC(=O)NC1=O)C2 (stereo not drawn) , DC50 observed: 5 to 50 nM

---
compound O=C1CCC(N2Cc3cc(N4CC5(CN(c6ccc(-c7cnc8[nH]cc(C(=O)c9c(F)ccc(NS(=O)(=O)N%10CC[C@@H](F)C%10)c9F)c8c7)cc6)C5)C4)ccc3C2=O)C(=O)N1 (stereo partly drawn) , DC50 observed: > 500 nM
